Measured GI50 by item
- System: A549
- measurement-notes: Cytotoxicity against human A549 cells by SRB assay
- Assay type: functional

Incoming: Can you share its GI50? I mean this compound: COc1ccc2c(c1)C(O)CCN2c1nc(C)nc2ccccc12 (stereo not given)
Outgoing: 19 nM

Incoming: Give its GI50 value. Item: `COc1ccc2c(c1)CCCN(c1nc(Cl)nc3ccccc13)C2`
Outgoing: 7570 nM

Incoming: Please look up its GI50: `COc1ccc2c(c1)OCCN2c1nc(Cl)nc2ccccc12`
Outgoing: 199 nM

Incoming: Recorded GI50 for `COc1ccc2c(c1)CCCCN2c1nc(Cl)nc2ccccc12` , please?
Outgoing: 191 nM

Incoming: Tell me the measured GI50 of `COc1ccc2c(c1)C(=O)CCN2c1nc(Cl)nc2ccccc12` , please.
Outgoing: 27 nM

Incoming: I am curious: what GI50 value has been reported for `COc1ccc2c(c1)NC(=O)CN2c1nc(C)nc2ccccc12` ?
Outgoing: 3.2 nM

Incoming: What value of GI50 has been recorded for this entry: `COc1ccc2c(c1)CCCN(c1nc(C)nc3ccccc13)C2`
Outgoing: 16700 nM

Incoming: I have this compound here, `Cc1nc(N2CCCc3cc(Br)ccc32)c2ccccc2n1` , and I need its recorded GI50.
Outgoing: 211 nM

Incoming: Can you share its GI50? I mean this compound: `COc1ccc2c(c1)CCN2c1nc(Cl)nc2ccccc12`
Outgoing: 233 nM

Incoming: So what does the record say about GI50 for CC(=O)O[C@H]1C(=O)[C@@]2(C)[C@H]([C@H](OC(=O)c3ccccc3)[C@]3(O)C[C@H](OC(=O)[C@H](O)[C@@H](NC(=O)c4ccccc4)c4ccccc4)C(C)=C1C3(C)C)[C@]1(OC(C)=O)CO[C@@H]1C[C@@H]2O [PACLITAXEL] ?
Outgoing: 7.6 nM

----------
- System: KB
- measurement-notes: Cytotoxicity against human KB cells by SRB assay
- Type: functional
Field: label. Allowed values: Satisfied (GI50 < 20 nM) or Not satisfied (GI50 >= 20 nM).

Solved entries:
INSERT INTO assay_data (compound, group_label) VALUES
  ('COc1ccc2c(c1)CCCCN2c1nc(Cl)nc2ccccc12', 'Not satisfied'),
  ('CC(=O)O[C@H]1C(=O)[C@@]2(C)[C@H]([C@H](OC(=O)c3ccccc3)[C@]3(O)C[C@H](OC(=O)[C@H](O)[C@@H](NC(=O)c4ccccc4)c4ccccc4)C(C)=C1C3(C)C)[C@]1(OC(C)=O)CO[C@@H]1C[C@@H]2O', 'Satisfied');

Incoming: Please determine if `COc1ccc2c(c1)CCCN(c1nc(C)nc3ccccc13)C2` is below 20 nM in terms of GI50.
Outgoing: Not satisfied

Incoming: Given the entry COc1ccc2c(c1)C(O)CCN2c1nc(C)nc2ccccc12 (centres undefined) , would its reported GI50 be below 20 nM?
Outgoing: Satisfied

Incoming: Please check: GI50 for `COc1ccc2c(c1)C(=O)CCN2c1nc(C)nc2ccccc12` , strictly under 20 nM or not?
Outgoing: Satisfied

Incoming: Decide: GI50 of `COc1ccc2c(c1)OCCN2c1nc(Cl)nc2ccccc12` strictly below 20 nM?
Outgoing: Not satisfied

----------
# log10 of GI50 per record follows
- Tested on: A549
- measurement-notes: Cytotoxicity against human A549 cells by SRB assay
- Format: functional
Heads up: the numbers are on a log10 scale; they represent GI50 in nM.

// below: answered molecules
INSERT INTO assay_data (line_notation, measurement_label, value_measured) VALUES
  ('COc1ccc2c(c1)CCCCN2c1nc(C)nc2ccccc12', 'log10 of GI50', 1.32),
  ('Cc1ccc2c(c1)CCCN2c1nc(C)nc2ccccc12', 'log10 of GI50', 2.32),
  ('COc1ccc2c(c1)N(C)C(=O)CN2c1nc(C)nc2ccccc12', 'log10 of GI50', 1.28),
  ('COc1ccc2c(c1)CCN2c1nc(C)nc2ccccc12', 'log10 of GI50', 2.43),
  ('COc1ccc2c(c1)C(=O)CCN2c1nc(C)nc2ccccc12', 'log10 of GI50', 1.38),
  ('COc1ccc2c(c1)OCCN2c1nc(C)nc2ccccc12', 'log10 of GI50', 2.28);

Incoming: Requested read-out: log10 of GI50. Entry: `Cc1ccc2c(c1)CCCN2c1nc(Cl)nc2ccccc12`
Outgoing: 1.63
